Test system: N-acetyl-PPT deacetylase (Deac1 protein)
Assay: Nonradioactive test, substrate specificity of purified deacetylase (amino acid analyzer)
Type: biochemical, Stenotrophomonas sp.
Conditions: 25 mM substrate, 60 min, 28 °C, 5 μg enzyme; hippuric acid set equal to 100%
Field: Rel. activity. Provide a value for each of the compounds that follow.
Please give a number only; it is taken to be in %.

Form field Rel. activity, entry O=C(O)CNC(=O)c1ccccc1 [Hippuric acid, N-benzoylglycine] : 100

The recorded Rel. activity for entry CC(=O)N[C@@H](CCC(N)=O)C(=O)O [N-Ac-glutamine] equals 30

Lookup result for CC(=O)N[C@@H](CCCN)C(=O)O [N-Ac-ornithine] ; measured Rel. activity: 37

Quick note, Rel. activity for CC(=O)NC(Cc1c[nH]c2ccccc12)C(=O)O (centres unmarked) [N-Ac-tryptophan] landed at 0.4

CC(=O)NC(Cc1ccccc1)C(=O)O (centres unmarked) [N-Ac-phenylalanine] yielded Rel. activity of 24

These measurements were taken from patent US6555733B2.
